test system: K-562 leukemia; assay: NCI tumour cell line growth inhibition, 48 h
test readout: TGI

[
  {
    "compound": "O=c1[nH]c2ccccc2cc1C(Cl)=C(Cl)Cl",
    "TGI": "> 100 µM"
  }
]

Determine reported TGI for `O=c1oc2ccccc2c(O)c1C(c1cc(OCc2ccccc2)cc(OCc2ccccc2)c1)c1c(O)c2ccccc2oc1=O` ; test system: K-562 leukemia.
> 25.4 µM

Look up and report measured TGI (K-562 leukemia) for the following compound: `O=C1O[C@@H](c2ccccc2)C[C@@H]1CN1CCOCC1`
> 100 µM

Determine reported TGI for CC(C)(C)OC(=O)NC(Cc1ccccc1)C(=O)OCN1C(=O)C2C3C=CC(C2C1=O)C1C2C(=O)N(COC(=O)C(Cc4ccccc4)NC(=O)OC(C)(C)C)C(=O)C2C31 (stereo unspecified) ; test system: K-562 leukemia.
> 100 µM

State recorded TGI with K-562 leukemia, entry `Nc1n[nH]c(=O)[nH]1` , no comment.
> 100 µM

Under K-562 leukemia, report TGI for `Nc1ccccc1Nc1ccccc1C(=O)[O-].Nc1ccccc1Nc1ccccc1C(=O)[O-].[Cu+2]`
> 100 µM

Hello, the source for this data is PubChem BioAssay (NCI), in case you need it.
